# Test system: HCC 2998
# Protocol: NCI tumour cell line growth inhibition, 48 h
Calls of active or inactive are those of the source. Rule as the data show it: active = GI50 up to about 1.1 µM and inactive = higher.
# reported GI50; entries follow

Given the molecule COC(=O)C1C2CC3C1C3C2C(=O)OC (centres undefined) , what is its reported GI50?
> 100 µM (inactive)

Query CC(SC(=S)N1CCOCC1)C(=O)Nc1nnc(-c2ccc(Cl)cc2)o1 (centres undefined) next
> 100 µM (inactive)

Query Oc1c2cccc1Cc1cccc3c1OCCOCCOCCOCCOc1c(cccc1Cc1cccc(c1O)C3)C2 next
> 100 µM (inactive)

Query COc1cc(/C=C\c2ccc(OC(C)=O)cc2)cc(OC)c1OC next
8.13 µM (inactive)

Query COc1ccc(NS(=O)(=O)c2ccc(/N=C3\C=C(Nc4ccc(S(=O)(=O)Nc5ccc(OC)nn5)cc4)C(=O)c4ccccc43)cc2)nn1 next
19.6 µM (inactive)

Query COc1ccc(C(=O)/C=C/c2ccc(OCCCOc3ccc(/C=C/C(=O)c4ccc(OC)c(OC)c4)cc3)cc2)cc1OC next
> 100 µM (inactive)

----------
# reported GI50; entries follow
# Tested on: BT-549
# Protocol: NCI tumour cell line growth inhibition, 48 h
Calls of active or inactive are those of the source. Rule as the data show it: active = GI50 up to about 1.1 µM and inactive = higher.

Some molecules with known GI50 results, for comparison:
1) C=C1C(=O)O[C@H]2C[C@@]3(C)[C@H](O)CCC(=C)[C@@H]3[C@@H](OC(C)=O)[C@H]12
7.33 µM (inactive)
2) CSC(SC)=C(C#N)C(=O)Nc1ccc(Cl)cc1
46.7 µM (inactive)
3) CCOC1OC(COC(=O)C(C)(C)C)C(O)CC1n1cc(C)c(=O)[nH]c1=O (configuration not stated)
> 100 µM (inactive)
4) Cn1ncc2c(NCc3ccccc3)ncnc21
> 100 µM (inactive)
5) O=c1n(-c2ccccc2)c(=O)n2n1C1Cc3ccccc3C12 (configuration not stated)
> 100 µM (inactive)

Given the molecule COc1ccc(N2C(=O)C3c4[nH]c5ccc(OCc6ccccc6)cc5c4C4CCC(C(C)C)CC4C3C2=O)cc1 (configuration not stated) , what is its reported GI50?
28.6 µM (inactive)

Query Oc1c2cc(Cl)cc1COCc1cc(Cl)cc(c1O)COCc1cc(Cl)cc(c1O)COC2 next
31.3 µM (inactive)

Query CCCCCCCCCCCOCCC1C(C(C)OCCN2CCCC2)OC2OC(C)(C)OC21 (configuration not stated) next
3.13 µM (inactive)

----------
# System: CCRF-CEM
# Protocol: NCI tumour cell line growth inhibition, 48 h
Activity calls are given as the source filed them. No stated cut-off is given here; in the data, active = GI50 up to about 1.1 µM and inactive = higher.
Lab note: assign the record to one of true (active), false (inactive)

1. CN(/N=C/c1ccc(C(=O)O)cc1)C1=NCCCCN1
false
2. O=[N+]([O-])c1ccc(-n2nc3ccc4c(no[n+]4[O-])c3n2)cc1
false
3. CN(C)C1(N(C)C)Oc2c(c(=O)n(C)c(=O)n2C)C(c2ccccc2)C1(F)F (stereo not given)
false
4. COc1ccc(NS(=O)(=O)c2ccc(/N=C3\C=C(Nc4ccc(S(=O)(=O)Nc5ccc(OC)nn5)cc4)C(=O)c4ccccc43)cc2)nn1
false
5. COC(=O)c1cc(C)n(NC(=O)OC(C)(C)C)c1C
false
6. CC(C)OP(=O)(OC(C)C)c1nn(-c2ccc([N+](=O)[O-])cc2)c(=N)s1
false
7. COc1cc(Cc2cc3c(c(C(=O)O)c2Br)OCO3)cc(OC)c1OC
false
8. O=C(c1ccc(Cl)cc1)c1ccc(OCC(=O)N2CCN(c3ccccc3)CC2)cc1
false
9. COc1ccc(OC)c2c(=O)cc(-c3ccccc3)[nH]c12
false
10. CCOC1OC(COC(=O)C(C)(C)C)C(O)CC1n1cc(C)c(=O)[nH]c1=O (stereo not given)
false

Query molecule follows.
// outcome(item) with item = OC1[C@@H]2[C@@H](O)[C@H](O)[C@@H](O)N2C[C@@H]1O (stereo not given in full)
false

----------
# System: RPMI-8226
# Protocol: NCI tumour cell line growth inhibition, 48 h
Activity calls are given as the source filed them. Cut-off read from the data, not from the text of the source: active = GI50 up to about 1.1 µM and inactive = higher.
Lab note: assign the record to one of active, inactive

Would you please look over these solved cases?
1) Cc1cc(S(=O)(=O)/N=C2\NCCN2Cc2ccccc2)c(S)cc1Cl
inactive
2) Cc1cc(O)cc(O)c1C(=O)O[C@]1(C)C(=O)C=C2C=C(/C=C/C(=O)O)OC=C2C1=O
inactive
3) CC(=O)[C@H]1CCC2[C@@H]3CC=C4C(O)C(OS(=O)(=O)O)CC[C@]4(C)C3CC[C@@]21C (some centres undefined)
inactive

// outcome(item) with item = CCOC(=O)c1nc2ccccc2nc1Nc1ccc(OC)cc1
inactive

----------
# Test system: EKVX
# Protocol: NCI tumour cell line growth inhibition, 48 h
The source made the active and inactive calls. No stated cut-off is given here; in the data, active = GI50 up to about 1.1 µM and inactive = higher.
# reported GI50; entries follow

Some compounds with known GI50 results, for comparison:
1) CC1=CC2=C(OCO1)C(=O)c1ccccc1C2=O
46.7 µM (inactive)
2) COc1cc([C@@H]2c3cc4c(cc3[C@@H](c3c(O)cc(O)c5c3O[C@H](c3ccc(O)c(O)c3)[C@@H](O)C5)[C@H]3COC(=O)[C@H]23)OCO4)cc(OC)c1O
> 100 µM (inactive)

Given the compound CN(C)c1ccc(/C=C2/SC(=S)NC2=O)cc1 , what is its reported GI50?
> 100 µM (inactive)

Query CCCCc1ccc(Nc2nc(Cl)c3c(ncn3COCCOC(C)=O)n2)cc1 next
19.8 µM (inactive)

----------
# System: SW-620
# Protocol: NCI tumour cell line growth inhibition, 48 h
Active and inactive are the calls of the source. Rule as the data show it: active = GI50 up to about 1.1 µM and inactive = higher.
Value type: GI50

1. O=c1oc2cc(O)ccc2c(O)c1C(c1ccccc1F)c1c(O)c2ccc(O)cc2oc1=O
38.4 µM (inactive)
2. COc1ccc(C2S/C(=C\c3cc(OC)c(OC)c(OC)c3)C(=O)N2NC(=O)Cc2ccccc2)cc1 (centres undefined)
> 100 µM (inactive)
3. CC(=O)N1c2ccccc2C23CCN4CC5=CCOC(O)C(C5CC42)C13 (centres undefined)
> 100 µM (inactive)

# value lookup — system SW-620, readout GI50, item CC(=C(C(=O)O)C(=O)O)c1cc(-c2cccs2)cc(-c2ccc(Cl)cc2)c1O
18.7 µM (inactive)

Query CCOc1ccccc1N1C(=O)C(=O)C(c2nc3ccccc3o2)C(=O)C1=O next
> 100 µM (inactive)

Query C/C(=C1\N=C(c2ccccc2)OC1=O)c1ccccc1 next
> 100 µM (inactive)

----------
# System: SF-539
# Protocol: NCI tumour cell line growth inhibition, 48 h
Active and inactive are the calls of the source. Rule as the data show it: active = GI50 up to about 1.1 µM and inactive = higher.
Value type: GI50

1. CC1=NN(C(=O)CC(=O)Nc2ccccc2C)C(=O)C1/N=N\c1ccc(S(=O)(=O)c2ccc(/N=N/C3C(=O)N(C(=O)CC(=O)Nc4ccccc4C)N=C3C)cc2)cc1 (centres undefined)
> 100 µM (inactive)
2. Clc1ccc(-c2nnc(-c3nsc4ccccc34)o2)cc1
20 µM (inactive)
3. COC(=O)c1c(OC)cc2cc3c(c(O)c2c1C)C(=O)C1(O)C(=O)C=C(OC)C(OC(=O)CC(C)N)=C1C3=O (centres undefined)
8.59 µM (inactive)
4. COC(=O)C(Cc1ccccc1)NP(=O)(O)OCC1OC(n2ccc(N)nc2=O)C(O)C1O (centres undefined)
> 100 µM (inactive)
5. CC(C)(C)NCC(O)c1ccc(O)c(CO)n1 (centres undefined)
> 100 µM (inactive)

Given the compound [N-]=[N+]=Nc1c(Cc2ccccc2)c(=O)oc2ccccc12 , what is its reported GI50?
> 10 µM (inactive)

Query COc1ccc(N2C(=O)C3c4[nH]c5ccc(OCc6ccccc6)cc5c4C4CCC(C(C)C)CC4C3C2=O)cc1 (centres undefined) next
6.03 µM (inactive)

Query Nc1ccc(-c2nc3ccc(F)cc3s2)cc1Cl next
53.5 µM (inactive)

Query COC(=O)C1CC2C=CC1N(C(=O)OCc1ccccc1)C2 (centres undefined) next
> 100 µM (inactive)

----------
# System: EKVX
# Protocol: NCI tumour cell line growth inhibition, 48 h
Active and inactive are the calls of the source. Rule as the data show it: active = GI50 up to about 1.1 µM and inactive = higher.
# reported GI50; entries follow

Some compounds with known GI50 results, for comparison:
1) CCN(CC)C(=O)c1cc(OC(C)C)ccc1-c1c(C)cc(OC(C)C)c(OC)c1OC
60.7 µM (inactive)
2) CC(C)(C)NCC(O)c1ccc(O)c(CO)n1 (configuration not stated)
> 100 µM (inactive)
3) CC(N/N=C(\S)N1CCN(c2ccccn2)CC1)c1cccc[n+]1[O-] (configuration not stated)
6.47 µM (inactive)
4) Cn1ncc2c(NCc3ccccc3)ncnc21
> 100 µM (inactive)
5) CCOC(=O)c1sc(N)nc1N1CCCC1
> 100 µM (inactive)

Given the compound N/C(=N\O)N/N=C/c1ccc2c(c1)OCO2 , what is its reported GI50?
8.85 µM (inactive)

Query COc1cc(OC)c(OC)cc1/C=C/c1nc2ccccc2s1 next
69.7 µM (inactive)

Query COC(=O)c1c(OC)cc2cc3c(c(O)c2c1C)C(=O)C1(O)C(=O)C=C(OC)C(OC(=O)CC(C)N)=C1C3=O (configuration not stated) next
20 µM (inactive)

Query Cc1cc(O)cc(O)c1C(=O)O[C@]1(C)C(=O)C=C2C=C(/C=C/C(=O)O)OC=C2C1=O next
> 100 µM (inactive)

Query S=C1N=C2C(=N1)n1c3c(c4ccccc41)CCCC23 (configuration not stated) next
> 100 µM (inactive)

Query C(=N/Nc1ccccn1)/c1cccnc1 next
49.4 µM (inactive)

Query O=C1C=CC=C/C1=C1/SC(c2ccccc2)=C(O)N1c1ccccc1 next
> 100 µM (inactive)
